tested on: ATP; assay: switch fluorescence ratio, 500 uM ATP over buffer (Cy3 cluster intensity, sum of 5 cycles each) (fold (ratio)); higher = stronger signal-on switching upon ATP binding; sequences stand for … in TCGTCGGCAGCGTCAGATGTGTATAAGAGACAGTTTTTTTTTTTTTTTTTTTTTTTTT…TC; conditions: aptamer strand: ATP DNA aptamer (quencher-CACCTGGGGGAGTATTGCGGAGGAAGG + anchor), 100 nM annealed; ATP concentration: 500 uM;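 note: ATP exposure 15 min at 22 °C before imaging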
switch fluorescence ratio of 1 or higher: Yes. Under 1: No.

Here are 5 sequences together with their reported answers.
ACGGCACTCT = Yes
GCCGGGACGG = No
TTGGGGTT = No
CCGAGTTTGT = Yes
GGGGCAGGAT = Yes

For the next question, use this sequence.
Q: Is the recorded value of switch fluorescence ratio equal to or greater than 1 for this sequence? GGTAGCGAAG
Result: No

====

test system: ATP; test: switch fluorescence ratio, 500 uM ATP over buffer (Cy3 cluster intensity, sum of 5 cycles each) (fold (ratio)); higher = stronger signal-on switching upon ATP binding; sequences stand for … in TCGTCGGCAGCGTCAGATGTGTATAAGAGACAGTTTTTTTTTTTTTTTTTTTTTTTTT…TC; details: aptamer strand: ATP DNA aptamer (quencher-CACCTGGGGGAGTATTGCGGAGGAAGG + anchor), 100 nM annealed; ATP concentration: 500 uM;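 note: ATP exposure 15 min at 22 °C before imaging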
// switch fluorescence ratio lookup, one value per entry

Examples from the recorded data:
TCGAGGGCGA = 1.15
CAATATGCAG = 0.962
TAATATAGGT = 1.02
ATAAGCCCGT = 0.976
ATTAGTCGCT = 0.978

Could you now consider this next sequence?
Q: Quick one: switch fluorescence ratio for ACTAGGTGGG ?
Result: 1.01

====

system: ATP; assay: switch fluorescence ratio, 500 uM ATP over buffer (Cy3 cluster intensity, sum of 5 cycles each) (fold (ratio)); higher = stronger signal-on switching upon ATP binding; sequences stand for … in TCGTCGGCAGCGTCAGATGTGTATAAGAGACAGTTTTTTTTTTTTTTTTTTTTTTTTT…TC; conditions: aptamer strand: ATP DNA aptamer (quencher-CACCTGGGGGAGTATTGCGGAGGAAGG + anchor), 100 nM annealed; ATP concentration: 500 uM;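 note: ATP exposure 15 min at 22 °C before imaging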
Fulfilled means recorded switch fluorescence ratio is 1 or above; Not fulfilled means it is below 1.

Solved entries:
AAATCTGGGT = Not fulfilled
TCAATCGTTG = Fulfilled

Q: Hi team, for AAATACGCAG , is the recorded switch fluorescence ratio at or above 1?
Result: Fulfilled

Q: Lookup GCCGGATTGC
Result: Fulfilled

Q: Quick one: CTTGGGTTTG
Result: Fulfilled

Q: Follow-up item: GCGAGGTCGG
Result: Fulfilled

Q: Request: TTTGCTGAAA
Result: Not fulfilled

Q: Now this one: AACGCAGGAG
Result: Fulfilled

====

system: ATP; assay: switch fluorescence ratio, 500 uM ATP over buffer (Cy3 cluster intensity, sum of 5 cycles each) (fold (ratio)); higher = stronger signal-on switching upon ATP binding; sequences stand for … in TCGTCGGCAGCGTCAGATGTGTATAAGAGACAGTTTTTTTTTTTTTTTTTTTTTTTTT…TC; details: aptamer strand: ATP DNA aptamer (quencher-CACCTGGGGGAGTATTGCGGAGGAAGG + anchor), 100 nM annealed; ATP concentration: 500 uM;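 note: ATP exposure 15 min at 22 °C before imaging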
Below, each entry is listed alongside its reported switch fluorescence ratio.
Lab note: record just the number, no unit beside it.

Q: Could you tell me which switch fluorescence ratio is on file for CTTTGGGGGG ?
Result: 0.982

Q: Okay, and GATTTGGGGT ?
Result: 1

Q: // repeat for ATCGATTTCT and report
Result: 1

Q: Now try CAATTCAGTT .
Result: 0.991

Q: Same lookup for TCAGAATGGG , please.
Result: 0.983

====

tested on: ATP; test: switch fluorescence ratio, 500 uM ATP over buffer (Cy3 cluster intensity, sum of 5 cycles each) (fold (ratio)); higher = stronger signal-on switching upon ATP binding; sequences stand for … in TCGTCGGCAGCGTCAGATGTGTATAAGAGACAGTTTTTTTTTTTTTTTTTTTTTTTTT…TC; settings: aptamer strand: ATP DNA aptamer (quencher-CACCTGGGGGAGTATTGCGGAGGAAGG + anchor), 100 nM annealed; ATP concentration: 500 uM;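 note: ATP exposure 15 min at 22 °C before imaging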
Reported property: switch fluorescence ratio
The answer should be a number; do not append a unit.

AACGGGAGAT = 0.991

Q: Could you tell me which switch fluorescence ratio is on file for GGCGAGACGC ?
Result: 0.981

Q: Another sequence to check: TACATTAATA
Result: 1.05

Q: Cool, now ATAGTAGTAG
Result: 0.998

Q: Can you handle GAGATTATGG next?
Result: 0.966

====

tested on: ATP; experiment: switch fluorescence ratio, 500 uM ATP over buffer (Cy3 cluster intensity, sum of 5 cycles each) (fold (ratio)); higher = stronger signal-on switching upon ATP binding; sequences stand for … in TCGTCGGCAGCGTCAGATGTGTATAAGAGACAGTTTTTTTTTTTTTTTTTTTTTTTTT…TC; conditions: aptamer strand: ATP DNA aptamer (quencher-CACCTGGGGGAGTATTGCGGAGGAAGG + anchor), 100 nM annealed; ATP concentration: 500 uM;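 note: ATP exposure 15 min at 22 °C before imaging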
Reported property: switch fluorescence ratio
# output: bare number, no unit

Worked examples follow.
GCGTGATAGA = 1.04
CGGGCAGCTG = 1.04
AACTTGGTGT = 0.983
GGTAACACCA = 1.02

Q: I have this sequence here, TTGGGGGAGA , and I need its recorded switch fluorescence ratio.
Result: 1.02

Q: Another sequence to look at: TCGGGAAGAG
Result: 0.988

Q: Entry to check: GGGGGTGTAA
Result: 0.986

Q: Now consider TCGGGAGAAT .
Result: 1.01

Q: Please answer likewise for AGGGGGGTTT
Result: 1

Q: Subsequent entry: CAGGGGAGCG
Result: 0.993

Q: Please do the same for ATATAATACG as well.
Result: 1.01

Q: Param item: CGAGTTAAAT
Result: 1.01

====

tested on: ATP; experiment: switch fluorescence ratio, 500 uM ATP over buffer (Cy3 cluster intensity, sum of 5 cycles each) (fold (ratio)); higher = stronger signal-on switching upon ATP binding; sequences stand for … in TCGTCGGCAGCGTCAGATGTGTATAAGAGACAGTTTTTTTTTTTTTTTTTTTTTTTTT…TC; details: aptamer strand: ATP DNA aptamer (quencher-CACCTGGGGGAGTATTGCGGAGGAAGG + anchor), 100 nM annealed; ATP concentration: 500 uM;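 note: ATP exposure 15 min at 22 °C before imaging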
Reported property: switch fluorescence ratio
Number only, please.

These solved cases illustrate the format of a correct answer.
TCAGTAACGT = 1.02
CGACGAACGA = 1.54
ATAGTCTTTT = 1.02
CTTATAGTGC = 0.974

Q: For the sequence shown here, GTAAGTCCGA , give the reported switch fluorescence ratio.
Result: 0.98

Q: How about this sequence: GTGTGGCAGG
Result: 0.992

Q: Entry CATCGTTGGT please
Result: 0.999

Q: Okay, and GTCCGGGGGT ?
Result: 1.07

Q: How about ACTTTTACTC ?
Result: 1.16

Q: Cool, now TAGCAGAGGG
Result: 1.01

====

tested on: ATP; assay: switch fluorescence ratio, 500 uM ATP over buffer (Cy3 cluster intensity, sum of 5 cycles each) (fold (ratio)); higher = stronger signal-on switching upon ATP binding; sequences stand for … in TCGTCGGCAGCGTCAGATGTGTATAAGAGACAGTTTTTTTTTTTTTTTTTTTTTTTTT…TC; settings: aptamer strand: ATP DNA aptamer (quencher-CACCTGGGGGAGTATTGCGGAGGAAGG + anchor), 100 nM annealed; ATP concentration: 500 uM;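 note: ATP exposure 15 min at 22 °C before imaging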
Reported property: switch fluorescence ratio
Give a plain numeric answer without units written out.

GCGATGGGTC = 1.06
CAGCTAGTGG = 1.01
CTAAGATAGG = 1.01
TCATGATGTA = 0.985

Q: Which measured switch fluorescence ratio value corresponds to TTTTCGATTG ?
Result: 1.01

Q: Now try CGGCTGGCTT .
Result: 1

Q: Try this sequence too: CAAGTCAAAG
Result: 0.996

Q: Continue with TACAACATTT
Result: 1.06

Q: Another: CTTCGCACGG
Result: 3.54

Q: Try the sequence ACGTATGGCT
Result: 0.973

====

test system: ATP; assay: switch fluorescence ratio, 500 uM ATP over buffer (Cy3 cluster intensity, sum of 5 cycles each) (fold (ratio)); higher = stronger signal-on switching upon ATP binding; sequences stand for … in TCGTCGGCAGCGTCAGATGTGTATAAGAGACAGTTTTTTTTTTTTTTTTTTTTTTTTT…TC; details: aptamer strand: ATP DNA aptamer (quencher-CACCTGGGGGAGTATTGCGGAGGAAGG + anchor), 100 nM annealed; ATP concentration: 500 uM;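 note: ATP exposure 15 min at 22 °C before imaging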
Reported property: switch fluorescence ratio
Please give the numeric answer without any surrounding text.

TTGGGGGAGG = 0.989

Let's switch to this sequence now.
Q: Request the reported switch fluorescence ratio associated with CCCACCGGGC
Result: 1.05

Attribution: the supplement of paper PMC10126150
